# protocol details: Single-dose acute toxicity (lethal dose, 50% kill of test animals)
# applied conditions: rat, in vivo, rats, route not stated, read-out: LD50 (lethal dose as measured by a 50% kill of test animals)
value kind: LD50 (mg/kg)
Provide the reading as a plain figure in mg/kg.

Query: May I ask what LD50 has been recorded for OC[C@H]1SC(O)[C@H](O)[C@@H](O)[C@@H]1O (stereo partly shown) ?
Result: 14000
